All figures here come from the Deep4Chem optical property database.

Exercise: for every item that follows, state its recorded photoluminescence quantum yield.
- assay.name: photoluminescence quantum yield (fraction); solvent given as SMILES
- condition.parameters: in O=P(c1ccccc1)(c1ccccc1)c1ccccc1Oc1ccccc1P(=O)(c1ccccc1)c1ccccc1

Please review the entries below; each comes with its answer.
query.smiles	photoluminescence quantum yield
Cc1cc(-n2c3ccccc3c3cc4c(cc32)C2c3ccccc3C4c3ccccc32)c(C)cc1-c1nc(-c2ccccc2)nc(-c2ccccc2)n1	0.3
CC1(C)c2ccccc2N(c2ccccc2)c2ccc(S(=O)(=O)c3ccc4c(c3)C(C)(C)c3ccccc3N4c3ccccc3)cc21	0.5

Below is a list of molecules. For each, state its recorded photoluminescence quantum yield.
1. c1ccc2c(c1)Oc1ccccc1N2c1ccc2c(c1)c1ccccc1n1ccnc21
2. c1ccc(-c2nc(-c3ccc(N4c5ccccc5C(c5ccccc5)(c5ccccc5)c5ccccc54)cc3)cc(-c3ccccn3)n2)cc1
3. c1ccc(-c2cc(-c3ccc(N4c5ccccc5C(c5ccccc5)(c5ccccc5)c5ccccc54)cc3)nc(-c3ccccc3)n2)cc1
4. COc1ccc(-c2nc(-c3ccc(OC)cc3C)nc(-c3ccc(N4c5ccccc5C5(c6ccccc6-c6ccccc65)c5ccccc54)cc3C)n2)c(C)c1

Result ::
1: 0.27; 2: 0.83; 3: 0.7; 4: 0.51

Lab note: each molecule below needs its photoluminescence quantum yield filled in.
1. CC1(C)c2ccccc2N(c2c(F)cc(-c3nnc(-c4ccccc4)o3)cc2F)c2ccccc21
2. F[B-]1(F)Oc2ccccc2-c2cc(-n3c4ccccc4c4ccccc43)cc[n+]21
3. Cc1c(-c2ccc(N3c4ccccc4C(C)(C)c4ccccc43)cc2)ncnc1-c1ccc(N2c3ccccc3C(C)(C)c3ccccc32)cc1

Result ::
1: 0.72; 2: 0.99; 3: 0.75

// input: 2 molecules below; output: photoluminescence quantum yield for each
1. c1ccc2c(c1)c1ccccc1n2-c1ccc2c(c1)c1ccccc1n2-c1cc2c3ccccc3n3c4ccccc4c(c1)c23
2. FC(F)(F)c1ccc(-c2nnc(-c3cc(-c4nnc(-c5ccc(C(F)(F)F)cc5)o4)c(-n4c5ccccc5c5ccccc54)cc3-n3c4ccccc4c4ccccc43)o2)cc1

Result ::
1: 0.53; 2: 0.698

Take each entry in turn and give its photoluminescence quantum yield.
1. c1ccc(-c2nc(-c3ccccc3)nc(-c3ccc(N4c5ccccc5C5(c6ccccc6-c6ccccc65)c5ccccc54)cc3)n2)cc1
2. CC1(C)c2ccccc2-c2cc3c4cc(-n5c6ccccc6c6ccccc65)ccc4n(-c4ccc(-c5nc(-c6ccccc6)nc(-c6ccccc6)n5)cc4)c3cc21
3. Cc1ccc2c(c1)C(C)(C)c1cc(C)ccc1N2c1ccc2c(c1)C(C)(C)c1cc(N3c4ccc(C)cc4C(C)(C)c4cc(C)ccc43)ccc1S2(=O)=O
4. CC1(C)c2ccccc2N(c2ccc3c(c2)C(C)(C)c2cc(N4c5ccccc5C(C)(C)c5ccccc54)ccc2S3(=O)=O)c2ccccc21

Result ::
0.801
0.84
0.73
0.8
